These measurements were taken from the supplement of paper PMC7877785.

Assay: self-splicing fitness, log relative to wild type (ln ratio); higher = more splicing; Tetrahymena group I intron in knt gene, E. coli kanamycin selection, DiMSum; sequences stand for … in CUCUCU…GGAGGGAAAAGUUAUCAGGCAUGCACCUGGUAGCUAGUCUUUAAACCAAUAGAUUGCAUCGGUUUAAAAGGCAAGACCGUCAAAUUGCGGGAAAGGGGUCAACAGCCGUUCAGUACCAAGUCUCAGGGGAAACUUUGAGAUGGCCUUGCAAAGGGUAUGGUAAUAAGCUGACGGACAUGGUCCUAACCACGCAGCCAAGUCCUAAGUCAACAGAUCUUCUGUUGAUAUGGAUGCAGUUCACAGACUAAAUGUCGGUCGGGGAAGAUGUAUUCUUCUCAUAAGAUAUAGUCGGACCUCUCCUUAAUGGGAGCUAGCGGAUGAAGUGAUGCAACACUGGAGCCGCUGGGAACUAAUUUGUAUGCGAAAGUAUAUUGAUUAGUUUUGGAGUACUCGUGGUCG;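 also: selection with 25 µg/mL kanamycin versus none on LB agar overnight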
Conditions: 30 °C

residue.sequence	self-splicing fitness (ln)
CAGAAGCAAUAUUACGAAGG	-1.23
UGUCAGCAAUAUUACGAAAA	-1.06
GGGCAGCAAUAUUACGACCG	-0.512
GCGUAGCAAUAUUACGUUGU	-2.73
AAGGAGCAAUAUUACGAUUC	-1.13
UAUAAGCAAUAUUACGCUCG	-0.59
CAAAAGCAAUAUUACGCAGC	-3.68
GCUAAGCAAUAUUACGUUGG	-3.67
CGGAAGCAAUAUUACGGGGU	-2.39
GGGCAGCAAUAUUACGGUCU	-3.22
GGUAAGCAAUAUUACGAUGA	-1.83
AGUCAGCAAUAUUACGCGGA	-3.11
UCUCAGCAAUAUUACGUAGG	-0.566
UGCUAGCAAUAUUACGGGGA	-0.989
UUAAAGCAAUAUUACGGAGA	-1.64
AAAAAGCAAUAUUACGCGUA	-1.61
AAGCAGCAAUAUUACGCUUC	-2.97
ACUAAGCAAUAUUACGAACG	-1.1
UAGCAGCAAUAUUACGCCAA	-1.78
AGAGAGCAAUAUUACGGUUA	-3.1
UAUGAGCAAUAUUACGGCGU	-3.11
UCCUAGCAAUAUUACGCCAU	-2.5
CGGUAGCAAUAUUACGUUCU	-0.482
CCCAAGCAAUAUUACGUGUG	-2.98
AGUAAGCAAUAUUACGAAGU	-1.75
CGUCAGCAAUAUUACGUAGG	-0.704
GACGAGCAAUAUUACGUCUG	-3.64
AAAUAGCAAUAUUACGAGUG	-2.42
CACAAGCAAUAUUACGGACC	-3.41
AAACAGCAAUAUUACGGGAG	-3.34
ACACAGCAAUAUUACGUCAG	-3.58
AACGAGCAAUAUUACGGAUA	-2.98
AGCAAGCAAUAUUACGGCGA	-0.386
UGGAAGCAAUAUUACGAGAC	-3.31
UGCUAGCAAUAUUACGGGGU	-2.82
AGCAAGCAAUAUUACGCCGG	-3.71
CACGAGCAAUAUUACGUUCA	-2.99
ACCUAGCAAUAUUACGUUUG	-2.6
GCAUAGCAAUAUUACGACAG	-3.41
GUGGAGCAAUAUUACGUAAG	-3.04
AGGUAGCAAUAUUACGCAUA	-1.71
CGGUAGCAAUAUUACGGGUU	-3.51
UUUGAGCAAUAUUACGUGUG	-3.37
CUGAAGCAAUAUUACGUGUU	-3.7
CUAUAGCAAUAUUACGCAGA	-2.65
CAAUAGCAAUAUUACGUGUU	-4.08
CACCAGCAAUAUUACGUUGG	-4.24
ACCCAGCAAUAUUACGGAAG	-2.49
UACAAGCAAUAUUACGAUUG	-3.18
CAAUAGCAAUAUUACGCGUG	-1.93
AAACAGCAAUAUUACGUACG	-2.54
GGAUAGCAAUAUUACGUGUU	-3.31
GGCUAGCAAUAUUACGUCGC	-1.5
AGUGAGCAAUAUUACGCGCG	-1.28
CAGGAGCAAUAUUACGUUCC	-3.33
ACCAAGCAAUAUUACGACCG	-1.17
CCUCAGCAAUAUUACGCAUA	-2.47
UCUUAGCAAUAUUACGAGCU	-3.09
CAACAGCAAUAUUACGAACC	-2.27
CCGUAGCAAUAUUACGGCUU	-3.06
UCAUAGCAAUAUUACGCAAA	-2.54
GACUAGCAAUAUUACGAUCG	-1.24
AAUCAGCAAUAUUACGACUU	0.234
UCGAAGCAAUAUUACGCCCC	-1.87
CAUCAGCAAUAUUACGAUGA	-2.62
CAGUAGCAAUAUUACGGCUC	-1.36
UUGCAGCAAUAUUACGGGCU	-1.6
